- Test system: Giardia lamblia
- test name: In vitro anti-Giardia lamblia activity (multiwell culture, viable count by hemacytometer, 24 h)
- Type: cell-based
- conditions: Giardia duodenalis, 50% inhibition of growth, 37° C., about 16-24 hours, anaerobic, read-out: Anti-G. lamblia ED50
# label = yes (1) if IC50 < 2 µg/mL else no (0)

Example entries and their recorded answers appear below.
query: Please indicate whether the reported IC50 of Fc1ccc(C=NN=c2ccn(-c3ccc(Cl)cc3)cc2)cc1 is strictly below 2 µg/mL.
result: no (0)

query: Please indicate whether the reported IC50 of Clc1ccc(-n2ccc(=NN=Cc3ccc(Br)cc3)cc2)cc1 is strictly below 2 µg/mL.
result: yes (1)

query: Please indicate whether the reported IC50 of N#Cc1ccc(C=NN=c2ccn(-c3ccc(Cl)cc3)cc2)cc1 is strictly below 2 µg/mL.
result: no (0)

query: Please indicate whether the reported IC50 of CSc1ccc(C=NN=c2ccn(-c3ccc(Cl)cc3)cc2)cc1 is strictly below 2 µg/mL.
result: yes (1)

query: Please indicate whether the reported IC50 of Cc1ncc([N+](=O)[O-])n1CCO is strictly below 2 µg/mL.
result: no (0)

query: Please indicate whether the reported IC50 of Clc1ccc(-n2ccc(=NN=Cc3ccc(Cl)cc3Cl)cc2)cc1 is strictly below 2 µg/mL.
result: yes (1)

Next:
query: Please indicate whether the reported IC50 of Clc1ccc(C=NN=c2ccn(-c3ccc(Cl)cc3)cc2)cc1 is strictly below 2 µg/mL.
result: yes (1)

query: Please indicate whether the reported IC50 of Clc1ccc(-n2ccc(=NN=Cc3ccc(Cl)c(Cl)c3)cc2)cc1 is strictly below 2 µg/mL.
result: yes (1)

query: Please indicate whether the reported IC50 of FC(F)(F)c1ccc(C=NN=c2ccn(-c3ccc(Cl)cc3)cc2)cc1 is strictly below 2 µg/mL.
result: yes (1)
